A collection of compounds and their measured pEC50
# test summary: Induction of interphase microtubule depolymerization in rat A10 cells
# Assay type: cell-based

Please review the entries below; each comes with its answer.
INSERT INTO assay_data (smiles_str, result) VALUES
  ('CCOC(=O)c1[nH]c(Br)c(-c2ccc(C)cc2)c1Br', 4.12),
  ('CCOC(=O)c1[nH]c(Br)c(-c2ccc(Cl)cc2)c1Br', 4.08),
  ('CCOC(=O)c1c[nH]c(C(=O)c2ccc(OC)cc2)c1-c1ccc(OC)cc1', 3.3),
  ('CCOC(=O)c1[nH]c(Br)c(-c2cccc(OC)c2)c1Br', 5.62),
  ('Cc1nc2c(c(N(C)c3ccccc3)n1)C[C@@H](C)C2', 3.28),
  ('CCOC(=O)c1[nH]c(C(=O)c2ccc(OC)cc2)c(-c2ccc(OC)cc2)c1-c1ccc(OC)cc1', 3.3);

Reported pEC50 of `CCOC(=O)c1[nH]c(C(=O)c2ccc(OC)cc2)c(-c2ccc(OC)cc2)c1Br` : 3.3

// pEC50 value for `CCOC(=O)c1[nH]c(Br)c(-c2ccc(Cl)c(Cl)c2)c1Br` : 5

Notebook: `CCOC(=O)c1[nH]c(Br)c(-c2ccc3cc(OCC)ccc3c2)c1Br` , pEC50 read as 4.48

Looking up `CCOC(=O)c1c(-c2ccc(OC)c(OC)c2)c(-c2ccc(OC)c(OC)c2)cn1CCc1ccc(OC)c(OC)c1` , I found its pEC50 recorded as 3.3
